System: HIV-1/188-His
Experiment: inhibition of syncytium formation in CEM cells, HIV-1 RT mutant 188-His
Type: cell-based
Details: Human immunodeficiency virus 1, CCRF-CEM, 96 h, read-out: EC50 188-His
MEASURE: EC50 (µg/mL)
The reply should be a number in µg/mL, with the unit left off.

Query block: Entry Cc1occc1C(=S)Nc1ccc(Cl)c(COc2ccccc2F)c1 [Compound 18] needs its EC50 filled in; supply it.
Result block: 1.73

Query block: Give EC50 for Cc1occc1C(=S)Nc1ccc(Cl)c(COc2ccccc2Cl)c1 [Compound 6]
Result block: 0.053

Query block: Specify reported EC50 for the compound shown: Cc1occc1C(=S)Nc1ccc(Cl)c(COc2ccccc2C(F)(F)F)c1 [Compound 46]
Result block: 0.16

Query block: Tell me measured EC50 for Cc1occc1C(=S)Nc1ccc(Cl)c(COc2cccc(Cl)c2)c1 [Compound 7] please.
Result block: 0.95

Query block: Look up and state reported EC50 for Cc1occc1C(=S)Nc1ccc(Cl)c(COc2ccc(F)cc2Cl)c1 [Compound 47]
Result block: 2

====

Would you mind telling me the reported EC50 of each entry?
System: HIV-1 (IIIB)
Experiment: inhibition of HIV-1(IIIB) (WT) induced syncytium formation in CEM cells
Assay type: cell-based
Conditions: Human immunodeficiency virus 1, IIIB, CCRF-CEM, 96 h, Table 2, day 4 post infection, replicate values, read-out: EC50, Activity Against HIV-1 (IIIB)
The answer is to be given in nM; state only the numeric part.

Query block: Dear colleague, please send me the reported EC50 for Cc1occc1C(=S)Nc1ccc(Cl)c(COc2c(F)cccc2F)c1 [Compound 16] when you can.
Result block: 28.6

Query block: Give EC50 for the following compound: Cc1occc1C(=O)Nc1ccc(Cl)c(COc2ccc(F)cc2)c1 [Compound 10]
Result block: 4150

Query block: Report measured EC50; entry is COc1cccc(F)c1OCc1cc(NC(=O)c2ccoc2C)ccc1Br [Compound 63]
Result block: 7.45

Query block: Identify measured EC50 associated with Cc1occc1C(=S)Nc1ccc(Br)c(COc2ccccc2C(F)(F)F)c1 [Compound 65]
Result block: 0.29

Query block: Give the reported EC50 for this compound. Cc1occc1C(=S)Nc1ccc(Cl)c(COc2ccccc2C#N)c1 [Compound 30]
Result block: 63.5

Query block: Please give the documented EC50 of Cc1occc1C(=S)Nc1ccc(Cl)c(COc2ccc(F)cc2Cl)c1 [Compound 47]
Result block: 1030

====

Give measured EC50 for each item. Keep answers brief.
Test system: HIV-1/184-Ile
Assay: inhibition of syncytium formation in CEM cells, HIV-1 RT mutant 184-Ile
Format: cell-based
Details: Human immunodeficiency virus 1, CCRF-CEM, 96 h, read-out: EC50 184-IIe
Description: CEM cells were obtained from the American Tissue Cell Culture Collection (Rockville, Md.) . HIV-1 (IIIB) was originally obtained from the culture supernatant of persistently HIV-1-infected H9 cells and was provided by R. C. Gallo and M. Popovic (National Cancer Institute, National Institutes of Health, Bethesda, Md.). […]

Query block: GET EC50 | system: HIV-1/184-Ile | item: Cc1occc1C(=S)Nc1ccc(Cl)c(COc2ccccc2Cl)c1 [Compound 6]
Result block: 0.047 mg/L

Query block: Enter measured EC50, system HIV-1/184-Ile, for the compound shown: Cc1occc1C(=S)Nc1ccc(Cl)c(COc2ccc(F)cc2Cl)c1 [Compound 47]
Result block: 0.12 mg/L

Query block: GET EC50 where system = HIV-1/184-Ile and item = Cc1occc1C(=S)Nc1ccc(Cl)c(COc2c(F)cccc2F)c1 [Compound 16]
Result block: 0.011 mg/L

Query block: Fill in: EC50 on HIV-1/184-Ile, entry Cc1ccccc1OCc1cc(NC(=S)c2ccoc2C)ccc1Cl [Compound 8]
Result block: 0.065 mg/L

Query block: Report measured EC50 on HIV-1/184-Ile; entry: Cc1occc1C(=S)Nc1ccc(Cl)c(COc2ccccc2Br)c1 [Compound 40]
Result block: 0.04 mg/L

Query block: Enter measured EC50, system HIV-1/184-Ile, for the compound shown: COc1cccc(F)c1OCc1cc(NC(=S)c2ccoc2C)ccc1Cl [Compound 34]
Result block: 0.0087 mg/L

Query block: Give EC50 only, for Cc1occc1C(=S)Nc1ccc(Cl)c(COc2ccccc2[N+](=O)[O-])c1 [Compound 19] , using HIV-1/184-Ile data.
Result block: 0.0045 mg/L

Query block: Recall the reported EC50 of Cc1occc1C(=S)Nc1ccc(Cl)c(COc2cccc(C(F)(F)F)c2)c1 [Compound 5] when tested on HIV-1/184-Ile.
Result block: > 2 mg/L

Query block: Provide EC50, recorded with HIV-1/184-Ile, of CCc1ccccc1OCc1cc(NC(=S)c2ccoc2C)ccc1Cl [Compound 44]
Result block: 0.04 mg/L

Origin of the recorded values: patent US6143780A
